biological target: Neuronal acetylcholine receptor subunit alpha-7 (Rattus norvegicus, UniProt Q05941); experiment: Binding Assay: Rat brain tissue (hippocampus or whole brain) is homogenized in homogenization buffer (10% w/v). [0.32 M sucrose, 1 mM EDTA; 0.1 mM phenylmethylsulfonyl fluoride (PMSF), 0.01% (w/v) NaN3, pH 7.4, 4 C.] at 600 rpm in a glass homogenizer. The homogenate is centrifuged (1000xg, 4 C., 10 min) and the supernatant is removed. The pellet is resuspended (20% w/v) and the suspension is centrifuged (1000xg, 4 C., 10 mM). The two supernatants are combined and centrifuged (15 000xg, 4 C., 30 min). The pellet obtained in this way is referred to as the P2 fraction.The P2 pellet is washed twice with binding buffer (50 mM Tris-HCl, 1 mM MgCl2, 120 mM NaCl, 5 mM KCl, 2 mM CaCl2, pH 7.4), and centrifuged (15 000xg, 4 C., 30 min).The P2 membranes are resuspended in binding buffer and incubated in a volume of 250 ul (amount of membrane protein 0.1-0.5 mg) in the presence of 1-5 nM [3H]methyllycaconitine, 0.1% (w/v) BSA (bovine serum albumin) and various concentrations of the test substance.
Sequence (Q05941 whole entry): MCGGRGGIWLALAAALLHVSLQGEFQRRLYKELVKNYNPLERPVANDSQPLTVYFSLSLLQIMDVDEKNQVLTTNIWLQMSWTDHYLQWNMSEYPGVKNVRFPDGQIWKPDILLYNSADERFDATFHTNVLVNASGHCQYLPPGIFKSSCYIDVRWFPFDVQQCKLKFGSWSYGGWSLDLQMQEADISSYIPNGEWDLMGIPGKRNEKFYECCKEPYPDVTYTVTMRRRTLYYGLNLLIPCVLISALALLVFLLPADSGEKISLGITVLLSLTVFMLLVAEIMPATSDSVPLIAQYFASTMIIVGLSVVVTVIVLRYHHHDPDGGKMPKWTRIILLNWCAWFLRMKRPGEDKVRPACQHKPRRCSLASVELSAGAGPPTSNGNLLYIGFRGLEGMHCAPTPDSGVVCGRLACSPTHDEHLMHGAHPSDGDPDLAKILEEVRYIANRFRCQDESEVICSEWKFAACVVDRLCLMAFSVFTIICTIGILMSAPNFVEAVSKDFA
parameter measured: Ki (nM)
Your answer should be a plain number; it is taken to be in nM.

Looking up O=C(CC1CN2CCC1CC2)Nc1cc2ccc(Br)cc2s1 (stereo unspecified) , I found its Ki recorded as 200
